Recorded values, source patent EP4477673A1.

- system_under_test: T1, IL-2Rβ/γ on M07e cells (human, UniProt P14784 27-551; P31785 23-369)
- T1 sequence (looked up) 1: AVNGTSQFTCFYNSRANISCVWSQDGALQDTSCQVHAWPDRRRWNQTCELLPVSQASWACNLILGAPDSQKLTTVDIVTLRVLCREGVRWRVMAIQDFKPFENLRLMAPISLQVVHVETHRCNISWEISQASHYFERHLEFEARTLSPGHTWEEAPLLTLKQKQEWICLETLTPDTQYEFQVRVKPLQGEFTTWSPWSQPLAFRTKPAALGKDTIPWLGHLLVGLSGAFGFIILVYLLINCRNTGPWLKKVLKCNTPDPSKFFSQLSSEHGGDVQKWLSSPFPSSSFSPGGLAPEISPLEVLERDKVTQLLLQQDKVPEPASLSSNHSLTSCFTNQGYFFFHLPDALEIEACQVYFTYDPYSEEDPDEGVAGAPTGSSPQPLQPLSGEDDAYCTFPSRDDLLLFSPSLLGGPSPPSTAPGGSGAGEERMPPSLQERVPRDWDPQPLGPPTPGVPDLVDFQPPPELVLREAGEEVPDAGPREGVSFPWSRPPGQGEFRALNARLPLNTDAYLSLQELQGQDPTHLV
- T1 sequence (looked up) 2: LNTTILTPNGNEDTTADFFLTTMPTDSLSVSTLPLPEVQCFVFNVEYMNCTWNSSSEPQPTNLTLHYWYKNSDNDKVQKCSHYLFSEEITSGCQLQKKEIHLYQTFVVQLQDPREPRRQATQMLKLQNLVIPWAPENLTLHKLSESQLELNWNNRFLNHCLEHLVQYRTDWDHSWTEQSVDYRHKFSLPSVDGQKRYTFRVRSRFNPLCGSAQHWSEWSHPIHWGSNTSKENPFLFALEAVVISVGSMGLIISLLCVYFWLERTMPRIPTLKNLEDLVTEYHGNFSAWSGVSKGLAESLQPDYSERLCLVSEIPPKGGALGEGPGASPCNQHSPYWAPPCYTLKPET
- assay_notes: cell-based or functional assay
observed_property: M07e cell proliferation activity (%) at 37 nM
One number for each entry, in %.

Q: Note down M07e cell proliferation activity (%) at 37 nM recorded for A-N88D (Fc fusion, also called PD-1-IL-2v (N88D); not shown: IgG1 hinge (C220S) + Fc Knob chain (L234A, L235A, S354C, T366W, EU); D356/L358 or E356/M358 ver; IgG1 hinge (C220S) + Fc Hole chain (L234A, L235A, Y349C, T366S, L368A, Y407V; may have H435R, Y436F; EU)) chain (part 1 of 2): EVQLVESGGGLVQPGGSLRLSCAASGLTFSDYSMSWYRQAPGKGRELVAIISGSGVITHYVDSVKGRFTISRDNAKNTLYLQMRSLRAEDTAVYYCRAVSDWEDYWGQGTQVTVSS chain (part 2 of 2): GGGGSGGGGSGGGGSAPASSSTKKTQLQLEHLLLDLQMILQGISNYKNPKLTRMLTAKFYMPKKATELKHLQCLEEELKPLEEVLQGAQSKNFHLRPRDLISDINVIVLELKGSETTFMCEYADETATIVEFLNRWITFAQSIISTLT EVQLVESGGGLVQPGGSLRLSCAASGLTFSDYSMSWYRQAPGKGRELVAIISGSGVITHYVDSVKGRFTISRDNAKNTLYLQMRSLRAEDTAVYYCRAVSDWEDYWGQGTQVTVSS
A: -2.8
